Reference source: ChEMBL document CHEMBL4477252

TARGET_OR_SYSTEM: Mitogen-activated protein kinase 1 (Homo sapiens)
Sequence (P28482 whole entry): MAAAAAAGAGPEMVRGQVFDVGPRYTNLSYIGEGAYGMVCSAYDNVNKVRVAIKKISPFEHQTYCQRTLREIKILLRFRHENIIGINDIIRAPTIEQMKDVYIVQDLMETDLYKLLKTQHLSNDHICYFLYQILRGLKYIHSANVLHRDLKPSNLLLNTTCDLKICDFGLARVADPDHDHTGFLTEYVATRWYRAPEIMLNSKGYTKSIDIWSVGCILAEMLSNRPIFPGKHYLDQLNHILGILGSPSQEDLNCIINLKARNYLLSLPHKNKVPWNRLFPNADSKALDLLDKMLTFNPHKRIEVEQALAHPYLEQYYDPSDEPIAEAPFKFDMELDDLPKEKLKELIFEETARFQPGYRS
METHOD: Inhibition of full-length recombinant human GST-tagged MAPK1 expressed in Escherichia coli by Z'-LYTE assay
# IC50 values compiled below
API: value field is a number in µM; no unit string.

INSERT INTO results (compound, target_or_system, units_label, reading) VALUES
  ('Cn1cc(-c2cnc3c(-c4csc(C(=O)NCC(F)(F)F)c4)cnn3c2)cn1', 'Mitogen-activated protein kinase 1 (Homo sapiens)', 'µM', 18),
  ('O=C(NCC(F)(F)F)c1cc(-c2cnn3cc(-c4ccc(OCCN5CCCCC5)cc4)cnc23)cs1', 'Mitogen-activated protein kinase 1 (Homo sapiens)', 'µM', 12);

Which measured IC50 value corresponds to Cn1cc(-c2cnc3c(-c4csc(C(=O)N[C@@H]5CCCC[C@@H]5N)c4)cnn3c2)cn1 (racemic) ? 0.23

Then this compound: Cc1sc(C(=O)N[C@@H]2[C@H](N)CCCC2(F)F)cc1-c1cnn2cc(Cl)cnc12 1.2

----------
# key: entry, value: IC50
TARGET_OR_SYSTEM: Proto-oncogene tyrosine-protein kinase Src (Homo sapiens, UniProt P12931)
Sequence (P12931 2-536 limits assumed): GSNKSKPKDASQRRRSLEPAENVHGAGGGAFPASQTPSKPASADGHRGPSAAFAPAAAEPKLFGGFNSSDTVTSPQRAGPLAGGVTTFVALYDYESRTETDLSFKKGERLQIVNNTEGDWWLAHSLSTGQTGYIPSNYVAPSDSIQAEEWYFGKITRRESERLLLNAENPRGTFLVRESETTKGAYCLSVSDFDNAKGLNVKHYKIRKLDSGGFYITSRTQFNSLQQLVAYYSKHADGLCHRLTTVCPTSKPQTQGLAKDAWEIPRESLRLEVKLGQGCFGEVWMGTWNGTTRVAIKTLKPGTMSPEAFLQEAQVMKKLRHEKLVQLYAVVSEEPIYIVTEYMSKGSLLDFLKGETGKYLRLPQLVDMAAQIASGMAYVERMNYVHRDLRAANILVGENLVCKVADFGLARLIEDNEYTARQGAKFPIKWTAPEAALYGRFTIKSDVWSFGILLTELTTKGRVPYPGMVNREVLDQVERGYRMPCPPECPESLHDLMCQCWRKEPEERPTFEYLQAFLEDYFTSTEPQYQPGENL
METHOD: Inhibition of full-length recombinant human His-tagged SRC expressed in baculovirus expression system by Adapta assay

INSERT INTO assay_data (compound, property, reading) VALUES
  ('Cn1cc(-c2cnc3c(-c4csc(C(=O)N[C@@H]5CCCC[C@@H]5N)c4)cnn3c2)cn1 (racemic)', 'IC50', '3 nM'),
  ('Cn1cc(-c2cnc3c(-c4csc(C(=O)NCC(F)(F)F)c4)cnn3c2)cn1', 'IC50', '42 nM'),
  ('O=C(NCC(F)(F)F)c1cc(-c2cnn3cc(-c4ccc(OCCN5CCCCC5)cc4)cnc23)cs1', 'IC50', '37 nM');

Find the measured IC50: item Cc1sc(C(=O)N[C@@H]2[C@H](N)CCCC2(F)F)cc1-c1cnn2cc(Cl)cnc12 , target or system Proto-oncogene tyrosine-protein kinase Src (Homo sapiens, UniProt P12931). 8100 nM

----------
TARGET_OR_SYSTEM: UniProt P52333
Sequence (P52333 whole entry, the tested form may be a part): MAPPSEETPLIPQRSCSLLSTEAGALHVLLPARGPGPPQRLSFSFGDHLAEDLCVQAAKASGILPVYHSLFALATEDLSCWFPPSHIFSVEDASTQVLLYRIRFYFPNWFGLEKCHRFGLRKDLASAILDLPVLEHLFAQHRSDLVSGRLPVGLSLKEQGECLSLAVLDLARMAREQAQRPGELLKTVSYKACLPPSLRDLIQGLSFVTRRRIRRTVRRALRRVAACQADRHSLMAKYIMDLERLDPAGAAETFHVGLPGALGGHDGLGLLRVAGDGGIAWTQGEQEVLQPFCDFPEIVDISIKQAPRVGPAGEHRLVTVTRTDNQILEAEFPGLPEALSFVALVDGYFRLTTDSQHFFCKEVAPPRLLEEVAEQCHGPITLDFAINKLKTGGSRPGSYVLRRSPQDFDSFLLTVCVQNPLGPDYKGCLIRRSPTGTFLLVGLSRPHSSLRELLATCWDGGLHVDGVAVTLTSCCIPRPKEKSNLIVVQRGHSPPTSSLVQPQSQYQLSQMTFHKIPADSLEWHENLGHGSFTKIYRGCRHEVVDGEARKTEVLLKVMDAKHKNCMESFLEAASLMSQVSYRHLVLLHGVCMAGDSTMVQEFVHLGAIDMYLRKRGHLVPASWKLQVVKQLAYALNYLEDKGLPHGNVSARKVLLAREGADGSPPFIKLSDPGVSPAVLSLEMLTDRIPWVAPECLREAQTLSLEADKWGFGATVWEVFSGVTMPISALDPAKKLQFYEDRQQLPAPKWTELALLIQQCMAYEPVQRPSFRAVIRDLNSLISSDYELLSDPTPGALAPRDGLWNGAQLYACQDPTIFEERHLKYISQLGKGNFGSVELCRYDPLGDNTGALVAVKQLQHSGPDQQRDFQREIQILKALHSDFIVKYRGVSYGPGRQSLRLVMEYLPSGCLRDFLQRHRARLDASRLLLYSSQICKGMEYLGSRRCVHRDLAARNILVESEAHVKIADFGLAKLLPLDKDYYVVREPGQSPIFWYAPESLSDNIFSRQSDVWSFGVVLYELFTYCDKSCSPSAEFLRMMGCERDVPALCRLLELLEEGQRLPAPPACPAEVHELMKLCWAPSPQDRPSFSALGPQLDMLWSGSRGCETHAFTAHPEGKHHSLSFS
METHOD: Inhibition of recombinant human GST-tagged JAK3 catalytic domain expressed in baculovirus expression system by Z'-LYTE assay
Listing: IC50 of selected molecules
Write the number in nM without appending the unit.

Look up IC50: O=C(NCC(F)(F)F)c1cc(-c2cnn3cc(-c4ccc(OCCN5CCCCC5)cc4)cnc23)cs1 280

Follow-up entry: Cn1cc(-c2cnc3c(-c4csc(C(=O)N[C@@H]5CCCC[C@@H]5N)c4)cnn3c2)cn1 (racemic) 33

Would you mind doing Cn1cc(-c2cnc3c(-c4csc(C(=O)NCC(F)(F)F)c4)cnn3c2)cn1 as well? 430

Next: Cc1sc(C(=O)N[C@@H]2[C@H](N)CCCC2(F)F)cc1-c1cnn2cc(Cl)cnc12 1300

----------
Each entry below carries its recorded IC50.
TARGET_OR_SYSTEM: Hepatocyte growth factor receptor (Homo sapiens, UniProt P08581)
Sequence (P08581 whole entry, the tested form may be a part): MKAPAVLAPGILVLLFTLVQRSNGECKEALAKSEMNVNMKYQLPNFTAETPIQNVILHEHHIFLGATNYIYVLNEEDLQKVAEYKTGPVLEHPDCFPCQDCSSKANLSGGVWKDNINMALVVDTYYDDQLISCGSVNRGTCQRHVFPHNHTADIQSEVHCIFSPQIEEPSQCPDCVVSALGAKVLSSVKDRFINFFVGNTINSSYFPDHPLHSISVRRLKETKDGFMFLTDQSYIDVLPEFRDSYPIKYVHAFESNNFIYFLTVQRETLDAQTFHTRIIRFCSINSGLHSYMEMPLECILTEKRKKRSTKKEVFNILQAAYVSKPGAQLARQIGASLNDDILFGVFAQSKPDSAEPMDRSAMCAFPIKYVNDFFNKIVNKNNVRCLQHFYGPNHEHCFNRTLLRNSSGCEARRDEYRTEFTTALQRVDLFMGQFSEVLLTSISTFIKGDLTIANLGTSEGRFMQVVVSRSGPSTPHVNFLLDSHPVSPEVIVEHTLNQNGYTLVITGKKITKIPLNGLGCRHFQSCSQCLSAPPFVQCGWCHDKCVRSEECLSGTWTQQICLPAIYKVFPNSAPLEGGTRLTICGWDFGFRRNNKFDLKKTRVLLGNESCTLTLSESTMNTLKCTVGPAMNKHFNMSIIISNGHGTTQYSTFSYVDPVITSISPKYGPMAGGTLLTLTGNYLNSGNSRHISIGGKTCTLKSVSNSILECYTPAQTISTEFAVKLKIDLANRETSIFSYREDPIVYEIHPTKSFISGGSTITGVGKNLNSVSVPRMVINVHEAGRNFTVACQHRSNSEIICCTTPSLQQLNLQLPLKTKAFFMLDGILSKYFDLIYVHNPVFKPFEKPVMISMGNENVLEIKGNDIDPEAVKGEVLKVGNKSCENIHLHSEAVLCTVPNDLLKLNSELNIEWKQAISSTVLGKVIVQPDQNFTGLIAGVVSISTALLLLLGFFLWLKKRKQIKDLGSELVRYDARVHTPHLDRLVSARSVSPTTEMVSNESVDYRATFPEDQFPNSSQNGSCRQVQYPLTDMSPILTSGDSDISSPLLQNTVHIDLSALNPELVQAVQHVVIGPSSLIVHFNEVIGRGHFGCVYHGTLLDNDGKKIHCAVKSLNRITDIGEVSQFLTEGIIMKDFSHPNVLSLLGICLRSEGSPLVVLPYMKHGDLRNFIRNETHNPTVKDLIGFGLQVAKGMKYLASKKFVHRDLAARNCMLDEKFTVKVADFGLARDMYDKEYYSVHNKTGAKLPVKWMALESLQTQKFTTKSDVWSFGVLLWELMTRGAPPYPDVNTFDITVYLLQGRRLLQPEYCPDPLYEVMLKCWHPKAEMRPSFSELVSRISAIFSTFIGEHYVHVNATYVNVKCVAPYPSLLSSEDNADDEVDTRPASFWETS
METHOD: Inhibition of recombinant human N-terminal His-tagged cytoplasmic MET (956 to 1390 residues) expressed in baculovirus expression system by Z'-LYTE assay
Write the value in nM as a bare number.

INSERT INTO assay_data (compound, target_or_system, units_label, reading) VALUES
  ('O=C(NCC(F)(F)F)c1cc(-c2cnn3cc(-c4ccc(OCCN5CCCCC5)cc4)cnc23)cs1', 'Hepatocyte growth factor receptor (Homo sapiens, UniProt P08581)', 'nM', 1400),
  ('Cc1sc(C(=O)N[C@@H]2[C@H](N)CCCC2(F)F)cc1-c1cnn2cc(Cl)cnc12', 'Hepatocyte growth factor receptor (Homo sapiens, UniProt P08581)', 'nM', 8500),
  ('Cn1cc(-c2cnc3c(-c4csc(C(=O)N[C@@H]5CCCC[C@@H]5N)c4)cnn3c2)cn1 (racemic)', 'Hepatocyte growth factor receptor (Homo sapiens, UniProt P08581)', 'nM', 410);

Consider now this further compound.
Need IC50, item Cn1cc(-c2cnc3c(-c4csc(C(=O)NCC(F)(F)F)c4)cnn3c2)cn1 4000
